Data origin: patent US9701693B2

biological target: human O-GlcNAcase (Homo sapiens (Human))
Sequence (O60502 whole entry): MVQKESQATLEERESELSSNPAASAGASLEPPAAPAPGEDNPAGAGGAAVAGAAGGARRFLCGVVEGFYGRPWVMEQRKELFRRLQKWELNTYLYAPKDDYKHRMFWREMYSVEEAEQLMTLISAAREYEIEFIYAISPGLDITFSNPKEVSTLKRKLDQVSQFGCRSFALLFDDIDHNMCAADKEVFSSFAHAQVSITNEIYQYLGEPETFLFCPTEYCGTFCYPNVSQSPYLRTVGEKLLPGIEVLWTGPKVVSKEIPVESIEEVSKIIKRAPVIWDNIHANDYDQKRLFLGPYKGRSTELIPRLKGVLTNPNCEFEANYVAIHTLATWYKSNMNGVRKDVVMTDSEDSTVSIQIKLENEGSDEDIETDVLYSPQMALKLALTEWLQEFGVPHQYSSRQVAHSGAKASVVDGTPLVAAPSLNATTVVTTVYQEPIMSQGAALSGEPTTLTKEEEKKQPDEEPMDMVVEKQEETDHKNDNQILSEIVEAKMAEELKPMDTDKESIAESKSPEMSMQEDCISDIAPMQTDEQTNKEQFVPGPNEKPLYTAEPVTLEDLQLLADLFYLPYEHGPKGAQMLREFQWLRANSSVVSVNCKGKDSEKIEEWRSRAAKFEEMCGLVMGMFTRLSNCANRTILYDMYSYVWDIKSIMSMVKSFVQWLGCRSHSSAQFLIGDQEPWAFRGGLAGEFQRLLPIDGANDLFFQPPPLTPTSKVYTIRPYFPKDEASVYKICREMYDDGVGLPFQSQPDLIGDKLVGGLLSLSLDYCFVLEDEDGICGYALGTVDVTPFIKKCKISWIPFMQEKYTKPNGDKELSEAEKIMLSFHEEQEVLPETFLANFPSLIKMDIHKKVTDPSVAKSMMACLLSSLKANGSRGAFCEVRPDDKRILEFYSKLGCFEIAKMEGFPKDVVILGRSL
pKi: −log10 of the molar value.

Molecule | pKi
CN(C)C1=N[C@@H]2[C@@H](O)[C@@H](O)[C@@H](CO)O[C@@H]2S1 [Example 2] | 7.54

----------
test system: O-GlcNAcase in rat PC-12 cells; experiment: Cell-based ELISA for cellular O-GlcNAcase inhibition (O-GlcNAcylated protein, RL-2 antibody); details: 24 h treatment, O-GlcNAcylated protein detected with RL-2 antibody
pEC50: −log10 of the molar value.
Quantity: pEC50

Compound | Experimental System | Quantity | Readout Value
CNC1=N[C@@H]2[C@H](O)[C@H](O)[C@@H](CO)O[C@@H]2S1 [Example 4] | O-GlcNAcase in rat PC-12 cells | pEC50 | 6.96
